Taken from patent US8685941B2.

Test system: Panc-1 cells
Test: CyQuant cell proliferation/viability assay, Panc-1
Assay type: cell-based
Conditions: Homo sapiens, PANC-1; inhibitor alone, 48-h treatment; read-out: IC50 against Panc-1 viability
ATTRIBUTE MEASURED: IC50 (µM)

1: Cc1ccc(S(=O)(=O)OCC(=O)Nc2ccc(C(=O)O)c(O)c2)cc1 [S3I-201]
2: Cc1nc(Nc2ncc(C(=O)Nc3c(C)cccc3Cl)s2)cc(N2CCN(CCO)CC2)n1 [Das, Dasatinib]
[ask] // compare measured IC50, left 1 , right 2 , return larger API: response body contains the label of the selected item.
[reply] 1
(1: 40 µM, 2: 0.1 µM)

---

System: Stat3
Test: Stat3 DNA-binding activity, EMSA of nuclear extracts, Panc-1
Assay type: cell-based, human
Conditions: Panc-1, 24 h treatment
ATTRIBUTE MEASURED: constitutive Stat3 DNA-binding activity

[[record]]
chem_smiles = "C=CC(=O)Nc1cc2c(Nc3cccc(Br)c3)ncnc2cc1OCCCN1CCOCC1"
reported_result = "rebounded"

[[record]]
chem_smiles = "COc1cc2ncnc(Nc3ccc(F)c(Cl)c3)c2cc1OCCCN1CCOCC1"
reported_result = "rebounded"

[[record]]
chem_smiles = "Cc1nc(Nc2ncc(C(=O)Nc3c(C)cccc3Cl)s2)cc(N2CCN(CCO)CC2)n1"
reported_result = "rebounded"

